tested on: HepG2; assay: Cytotoxicity against Homo sapiens (human) HepG2 cells assessed as absorbance at 490 nm by MTT assay (reference value: 0.574 +/-0.019 no unit); type: cell-based; settings: hepg2, 10 mg/L
quantityName: OD
Answer as a number with no unit attached.

CC(C)(C)[Si](C)(C)Oc1cccc2c1C(=O)c1c(O[Si](C)(C)C(C)(C)C)cc(C(=O)NC3CCCC3)cc1C2=O 0.565
CN(C)C(=O)c1cc(O)c2c(c1)C(=O)c1cccc(O)c1C2=O 0.56
CC(=O)Oc1cccc2c1C(=O)c1c(OC(C)=O)cc(C(=O)OCc3ccc([N+](=O)[O-])cc3)cc1C2=O 0.573
CC(=O)Oc1cccc2c1C(=O)c1c(OC(C)=O)cc(C(=O)N3CCCC3)cc1C2=O 0.591

Could you now consider this next molecule?
Query block: For the molecule O=C1c2cccc(O)c2C(=O)c2c(O)cc(C(=O)N3CCCC3)cc21 , what OD is on record?
Result block: 0.565

----------
tested on: HepG2; experiment: Cytotoxicity against Homo sapiens (human) HepG2 cells assessed as absorbance at 490 nm by MTT assay (reference value: 0.574 +/-0.019 no unit); assay type: cell-based; conditions: hepg2, 10 mg/L
quantityName: OD
Please give the numeric answer without any surrounding text.

Known results for molecules:
CC(C)(C)[Si](C)(C)Oc1cccc2c1C(=O)c1c(O[Si](C)(C)C(C)(C)C)cc(C(=O)OCc3ccc([N+](=O)[O-])cc3)cc1C2=O 0.563
CN(C)C(=N)NC(=N)N 0.574

Now, please, on to the next molecule.
Query block: I have this molecule here, CC(=O)Oc1cccc2c1C(=O)c1c(OC(C)=O)cc(C(=O)NC3CCCC3)cc1C2=O , and I need its recorded OD.
Result block: 0.577

----------
tested on: HepG2; experiment: Ratio of glucose consumption to cytotoxic OD490 absorbance for Homo sapiens (human) HepG2 cells (reference value: 3.438 +/-0.139 no unit)
Entries and their Ratio values follow.
Lab note: jot down the number only; don't add units.

Query block: Look at this molecule and give its reported Ratio. CC(=O)Oc1cccc2c1C(=O)c1c(OC(C)=O)cc(C(=O)OCc3ccc([N+](=O)[O-])cc3)cc1C2=O
Result block: 3.958

Query block: CC(C)(C)[Si](C)(C)Oc1cccc2c1C(=O)c1c(O[Si](C)(C)C(C)(C)C)cc(C(=O)OCc3ccc([N+](=O)[O-])cc3)cc1C2=O , same question.
Result block: 4.499

Query block: Proceed to CC(C)(C)[Si](C)(C)Oc1cccc2c1C(=O)c1c(O[Si](C)(C)C(C)(C)C)cc(C(=O)NC3CCCC3)cc1C2=O
Result block: 4.563

Query block: What do you get for CN(C)C(=N)NC(=N)N [METFORMIN] ?
Result block: 3.923

Query block: Repeat with CC(=O)Oc1cccc2c1C(=O)c1c(OC(C)=O)cc(C(=O)N3CCCC3)cc1C2=O
Result block: 4.304

Query block: What would you report for O=C1c2cccc(O)c2C(=O)c2c(O)cc(C(=O)N3CCCC3)cc21 ?
Result block: 4.116

Query block: Can you check CN(C)C(=O)c1cc(O)c2c(c1)C(=O)c1cccc(O)c1C2=O next?
Result block: 4.449

Query block: CC(=O)Oc1cccc2c1C(=O)c1c(OC(C)=O)cc(C(=O)NC3CCCC3)cc1C2=O , same question.
Result block: 3.916
